This collection of values is drawn from ChEMBL document CHEMBL1134066.

Task for the reader: assign each of the following compounds its reported pIC50.
# Species: Homo sapiens
# experiment_summary: In vitro inhibitory concentration against Chymotrypsin-like activity of the purified human placenta 20S Proteasome
# Assay type: functional
// pIC50 is dimensionless: -log10 of concentration (M)

INPUT: Look up pIC50 for this compound: COc1ccc(CN[C@@H](C(=O)N[C@H](C(=O)NCc2ccc(OC)cc2O)C(C)C)[C@H](O)[C@H](Cc2ccccc2)NC(=O)[C@@H](NC(=O)OCc2cccc(C)c2)C(C)(C)C)cc1
OUTPUT: 6.30

INPUT: Input COc1ccc(CN[C@@H](C(=O)N[C@H](C(=O)NCc2ccc(OC)cc2O)C(C)C)[C@H](O)[C@H](Cc2ccccc2)NC(=O)[C@@H](N)C(C)(C)C)cc1
OUTPUT: 4.15

INPUT: Input COc1ccc(CN[C@@H](C(=O)N[C@H](C(=O)NCc2ccc(OC)cc2O)C(C)C)[C@H](O)[C@H](Cc2ccccc2)NC(=O)[C@@H](NC(=O)Cc2cccc3ccccc23)C(C)(C)C)cc1
OUTPUT: 7.00

INPUT: Input COc1ccc(CN[C@@H](C(=O)N[C@H](C(=O)NCc2ccc(OC)cc2O)C(C)C)[C@H](O)[C@H](Cc2ccccc2)NC(=O)[C@@H](NC(=O)OC(C)(C)C)C(C)(C)C)cc1
OUTPUT: 4.57

INPUT: Input COc1ccc(CN[C@@H](C(=O)N[C@H](C(=O)NCc2ccc(OC)cc2O)C(C)C)[C@H](O)[C@H](Cc2ccccc2)NC(=O)[C@@H](NC(=O)CCc2cccc(N)c2)C(C)(C)C)cc1
OUTPUT: 6.22

INPUT: Input COc1ccc(CN[C@@H](C(=O)N[C@H](C(=O)NCc2ccc(OC)cc2O)C(C)C)[C@H](O)[C@H](Cc2ccccc2)NC(=O)[C@@H](NC(=O)OCc2ccccc2)C(C)C)cc1
OUTPUT: 5.48

INPUT: Input COc1ccc(CN[C@@H](C(=O)N[C@H](C(=O)NCc2ccc(OC)cc2O)C(C)C)[C@H](O)[C@H](Cc2ccccc2)NC(=O)[C@@H](NC(=O)OCc2cc(C)cc(C)c2)C(C)(C)C)cc1
OUTPUT: 5.96

INPUT: Input COc1ccc(CN[C@@H](C(=O)N[C@H](C(=O)NCc2ccc(OC)cc2O)C(C)C)[C@H](O)[C@H](Cc2ccccc2)NC(=O)[C@@H](NC(=O)OCc2cccc3ccccc23)C(C)(C)C)cc1
OUTPUT: 5.70

INPUT: Input COc1ccc(CN[C@@H](C(=O)N[C@H](C(=O)NCc2ccc(OC)cc2O)C(C)C)[C@H](O)[C@H](Cc2ccccc2)NC(=O)[C@@H](NC(=O)OCc2cccc(N)c2)C(C)(C)C)cc1
OUTPUT: 6.22

INPUT: Input COc1ccc(CN[C@@H](C(=O)N[C@H](C(=O)NCc2ccccc2O)C(C)C)[C@H](O)[C@H](Cc2ccccc2)NC(=O)[C@@H](NC(=O)OCc2ccccc2)C(C)(C)C)cc1
OUTPUT: 4.14

INPUT: Input COc1ccc(CN[C@@H](C(=O)N[C@H](C(=O)NCc2ccc(OC)cc2O)C(C)C)[C@H](O)[C@H](Cc2ccccc2)NC(=O)[C@@H](NC(=O)OCc2ccccc2)C(C)(C)C)cc1
OUTPUT: 6.05
